molecular target: Mast/stem cell growth factor receptor Kit (Homo sapiens, UniProt P10721); test: Binding affinity to KIT (unknown origin) assessed as dissociation constant by competition binding assay
Sequence (P10721 whole entry): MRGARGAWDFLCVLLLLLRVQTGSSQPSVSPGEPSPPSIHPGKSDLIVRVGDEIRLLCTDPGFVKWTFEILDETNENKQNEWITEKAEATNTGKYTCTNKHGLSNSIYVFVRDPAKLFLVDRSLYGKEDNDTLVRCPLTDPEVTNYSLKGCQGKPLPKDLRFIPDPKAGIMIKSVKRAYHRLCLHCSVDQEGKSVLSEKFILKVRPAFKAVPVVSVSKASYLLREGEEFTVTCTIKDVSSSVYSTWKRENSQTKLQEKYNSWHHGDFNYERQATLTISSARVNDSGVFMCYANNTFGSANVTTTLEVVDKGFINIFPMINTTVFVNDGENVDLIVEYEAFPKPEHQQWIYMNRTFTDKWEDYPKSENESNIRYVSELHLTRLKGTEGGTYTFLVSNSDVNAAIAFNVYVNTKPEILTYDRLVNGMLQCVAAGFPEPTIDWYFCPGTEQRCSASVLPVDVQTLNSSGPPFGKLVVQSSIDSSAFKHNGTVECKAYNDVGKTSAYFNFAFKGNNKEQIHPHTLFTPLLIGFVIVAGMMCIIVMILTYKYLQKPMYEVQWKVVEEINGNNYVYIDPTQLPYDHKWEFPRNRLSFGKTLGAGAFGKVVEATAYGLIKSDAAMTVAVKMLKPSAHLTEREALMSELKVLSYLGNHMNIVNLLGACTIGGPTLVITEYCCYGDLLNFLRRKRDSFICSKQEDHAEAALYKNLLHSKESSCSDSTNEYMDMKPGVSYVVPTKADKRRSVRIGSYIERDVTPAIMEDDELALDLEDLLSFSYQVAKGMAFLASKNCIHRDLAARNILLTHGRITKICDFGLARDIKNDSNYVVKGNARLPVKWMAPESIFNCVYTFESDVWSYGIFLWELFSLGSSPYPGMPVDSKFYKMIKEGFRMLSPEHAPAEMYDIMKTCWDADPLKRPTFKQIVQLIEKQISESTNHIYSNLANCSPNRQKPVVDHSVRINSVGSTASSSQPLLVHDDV
measurement_name: pKd
The scale used: pKd is minus the common logarithm of the concentration in molar units.

Given the compound COc1cc2c(Oc3ccc(Nc4nn(C)cc4C(=O)NC4CCCCC4)cc3F)ccnc2cc1OCCCN1CCOCC1 , what is its reported pKd? 8.59

###

assay: Observed MRTinfinity in Sprague-Dawley rat at 5 mg/kg, iv measured for 96 hrs by LC-MS analysis; format: ADME, organism-based; settings: in vivo
measurement_name: MRT inf (h)
# number only, unit h dropped from output

# get_value(readout='MRT inf', item= COc1cc2c(Oc3ccc(Nc4nn(C)cc4C(=O)NC4CCCCC4)cc3F)ccnc2cc1OCCCN1CCOCC1 ) 1.82

###

test: AUClast in Sprague-Dawley rat at 25 mg/kg, po measured for 96 hrs by LC-MS analysis; type: ADME, organism-based; parameters: time 96 hrs, dose 25 mg/kg, route po; conditions: in vivo
measurement_name: AUC(0-t) at 96 h (ng·h/mL)
Lab book: enter the figure in ng·h/mL, no units written.

Quick one: AUC(0-t) at 96 h for COc1cc2c(Oc3ccc(Nc4nn(C)cc4C(=O)NC4CCCCC4)cc3F)ccnc2cc1OCCCN1CCOCC1 ? 8410

###

test: Observed AUCinfinity in Sprague-Dawley rat at 5 mg/kg, iv measured for 96 hrs by LC-MS analysis; format: ADME, organism-based; set-up: dose 5 mg/kg, time 96 hrs, route iv; details: in vivo
measurement_name: AUC(0-inf)
Number first, unit second.

GET /values?readout=AUC(0-inf)&item= COc1cc2c(Oc3ccc(Nc4nn(C)cc4C(=O)NC4CCCCC4)cc3F)ccnc2cc1OCCCN1CCOCC1 11700 ng·h/mL

###

IC50 values by entry
target: Tyrosine-protein kinase receptor UFO (Homo sapiens, UniProt P30530); assay: Inhibition of recombinant AXL (unknown origin) using poly (Glu,Tyr) 4:1 as substrate incubated for 60 mins in presence of ATP by ELISA
Sequence (P30530 whole entry): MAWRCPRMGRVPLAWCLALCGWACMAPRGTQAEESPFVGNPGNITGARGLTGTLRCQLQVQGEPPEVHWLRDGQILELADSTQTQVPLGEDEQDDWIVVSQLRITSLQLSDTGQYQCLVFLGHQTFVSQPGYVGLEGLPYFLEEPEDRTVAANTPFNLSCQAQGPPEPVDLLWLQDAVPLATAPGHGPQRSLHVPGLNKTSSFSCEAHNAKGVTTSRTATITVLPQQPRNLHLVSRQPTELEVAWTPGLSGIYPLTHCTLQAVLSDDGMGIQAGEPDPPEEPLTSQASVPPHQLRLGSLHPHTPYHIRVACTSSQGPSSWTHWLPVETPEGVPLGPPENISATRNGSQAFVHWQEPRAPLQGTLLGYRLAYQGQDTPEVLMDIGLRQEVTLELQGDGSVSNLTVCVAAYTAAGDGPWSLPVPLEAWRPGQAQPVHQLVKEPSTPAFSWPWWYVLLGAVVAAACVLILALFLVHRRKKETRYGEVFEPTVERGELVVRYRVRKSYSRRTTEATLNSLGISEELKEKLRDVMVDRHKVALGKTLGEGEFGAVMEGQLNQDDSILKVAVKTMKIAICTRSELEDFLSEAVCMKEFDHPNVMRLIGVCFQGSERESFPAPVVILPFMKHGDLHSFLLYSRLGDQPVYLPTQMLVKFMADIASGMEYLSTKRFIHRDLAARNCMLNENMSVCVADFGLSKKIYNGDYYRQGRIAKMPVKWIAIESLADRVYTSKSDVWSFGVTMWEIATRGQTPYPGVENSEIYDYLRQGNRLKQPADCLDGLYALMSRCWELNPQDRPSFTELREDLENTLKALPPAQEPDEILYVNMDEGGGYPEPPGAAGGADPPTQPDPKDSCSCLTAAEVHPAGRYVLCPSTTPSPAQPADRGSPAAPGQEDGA

Recorded results for 2 compounds are shown here.
CNC(=O)c1cn(C)nc1Nc1ccc(Oc2ccnc3cc(OC)c(OC)cc23)c(F)c1 :: > 1000 nM
COc1cc2nccc(Oc3ccc(Nc4nn(C)cc4C(=O)Nc4ccc(C(C)C)cc4)cc3F)c2cc1OC :: > 1000 nM

Given the compound COc1cc2nccc(Oc3ccc(Nc4nn(C)cc4C(=O)Nc4ccc(OC(F)(F)F)cc4)cc3F)c2cc1OC , what is its reported IC50? > 1000 nM

All values here come from ChEMBL document CHEMBL5096241.
